Every entry's value here was drawn from PubChem BioAssay (NCATS).

# Tested on: P94_40
# method-summary: qHTS profiling for inhibitors of Plasmodium falciparum proliferation (AID 504749); further: nearly all actives have a fitted effect of over 60% in size; further: potency means the concentration at half of the fitted maximal effect
# condition-notes: P. falciparum in erythrocytes, SYBR Green DNA, 72 h; series mostly up to 28.7 µM
# Protocol: NIH National Institute of Allergy and Infectious Diseases [NIAID] NIH Chemical Genomics Center [NCGC] […] Because mature erythrocytes lack DNA, only Plasmodium-derived DNA is detected. NCGC Assay Protocol Summary: The SYBR Green viability assay was adapted from a method described previously (Plouffe et al., 2008). […] The following morning, fluorescence intensity at 485(14) nm excitation and 535(25) nm emission wavelengths was measured on an EnVision (Perkin Elmer) plate reader. […]
Inconclusive results are not listed. Calls of active or inactive are those of the source. The call rests on the fitted dose curve; in most records, active means well fitted inhibition curve with a large enough effect; inconclusive means small, poorly fitted or top-dose-only effect; inactive means flat fitted curve, though single readings scatter.
observed-property: Potency

The cases that follow already have their Potency on record.
> print(dat)
                    structure.smiles.string       measurement
1  O=C(Nc1ccc(Oc2ccc(Cl)cc2)c(Cl)c1)c1cc(I)cc(I)c1O          inactive
2                          N[C@H](CO)C(=O)O          inactive
3          Cc1ccnc(NS(=O)(=O)c2ccc(N)cc2)n1          inactive
4  COC(=O)[C@@H]1CC2=CC(=O)CC[C@]2(C)[C@@]23O[C@@H]2C[C@@]2(C)[C@@H](CC[C@@]24CCC(=O)O4)[C@H]13          inactive
5             CCOc1ccc2nc3cc(N)ccc3c(N)c2c1  5.62 µM (active)

Write down Potency measured for item C[N+]1(CCCCC[N+]2(C)CCCC2)CCCC1 inactive

----------
# method-summary: Drug repurposing screens with cells derived from glioblastoma tumor samples (AID 1345199); further: on the % scale 0 is the no-effect control and ±100 the full control effect; nearly all actives have a fitted effect of over 40% in size
# condition-notes: GBM patient neurospheres viability, ATP luminescence, 48 h; at 46.1 µM (top of the series); tumour line C
Results filed as inconclusive are left out.
observed-property: activity, negative = cell killing (%)
Only the number, expressed in %, is required.

Here's what some known entries look like.
> print(dat)
                    structure.smiles.string  measurement
1  CCCCC(=O)O[C@]1(C(=O)CO)CC[C@H]2[C@@H]3CCC4=CC(=O)CC[C@]4(C)[C@H]3[C@@H](O)C[C@@]21C        -22.7
2          OC(CCN1CCCCC1)(c1ccccc1)c1ccccc1         4.07

Look up activity, negative = cell killing of CCC(=O)c1c(O)cc(O)cc1O and report it. -2.44

Answer with reported activity, negative = cell killing of Nc1ccc(/C=C/c2ccc(N)cc2S(=O)(=O)O)c(S(=O)(=O)O)c1 -2.52

Please indicate activity, negative = cell killing recorded for COc1ccc(CN2CCN(C(c3ccc(F)cc3)c3ccc(F)cc3)CC2)c(OC)c1OC -24.3

----------
# method-summary: qHTS drug screen for cell cycle checkpoint inhibitors in PARPi-resistant BRCA-mutant ovarian cancer cell lines. (AID 1963452)
# condition-notes: PEO1/OlaR viability, CellTiter-Glo luminescence, 96 h; measured here: PEO1 parental Z-AUC; stronger effect = lower value
observed-property: Z-AUC

> print(dat)
                    structure.smiles.string  measurement
1  CC[C@H](C)C(=O)O[C@H]1CCC=C2C=C[C@H](C)[C@H](CC[C@@H]3C[C@@H](O)CC(=O)O3)[C@H]21         1.13
2  COc1cc(NS(C)(=O)=O)ccc1Nc1c2ccccc2nc2ccccc12        -1.77

Turning now to a further molecule:
Output Z-AUC of COc1cccc2c1C(=O)c1c(O)c3c(c(O)c1C2=O)C[C@@](O)(C(=O)CO)C[C@@H]3O[C@H]1C[C@H](N)[C@H](O)[C@H](C)O1 -0.971

----------
# Test system: 7G8
# method-summary: qHTS profiling for inhibitors of Plasmodium falciparum proliferation (AID 504749); further: nearly all actives have a fitted effect of over 60% in size
# condition-notes: P. falciparum in erythrocytes, SYBR Green DNA, 72 h; series mostly up to 28.7 µM
Records with an inconclusive call do not appear. Calls of active or inactive are those of the source. Calls come from the whole dose curve; as a rule, active = well fitted inhibition curve with a large enough effect; inconclusive = small, poorly fitted or top-dose-only effect; inactive = flat fitted curve, though single readings scatter.
Outcome (select one): 1 for active, -1 for inactive

These solved cases illustrate the format of a correct answer.
> print(dat)
                                   compound  group
1                   CC(C)COC(=O)c1ccc(N)cc1     -1
2               O=C(Nc1ccc(Cl)c(Cl)c1)C1CC1     -1
3                Nc1ccc(C(=O)Nc2ccccc2N)cc1     -1
4          CN1CCC(=C2c3ccccc3Sc3ccccc32)CC1      1
5  CC(Cc1cccc(C(F)(F)F)c1)NCCOC(=O)c1ccccc1 (centres undefined)      1

Which outcome was assigned to CN1CCN(CCCN2c3ccccc3Sc3ccc(S(=O)(=O)N(C)C)cc32)CC1 in this test? 1

Assay result, entry CC(O)C(=O)O (centres undefined) — outcome? -1

Could you please tell me the result logged for COc1ccc(CCN2CCC(Nc3nc4ccccc4n3Cc3ccc(F)cc3)CC2)cc1 in this assay? 1

Assay result, entry CN(C)/N=N/c1nc[nH]c1C(N)=O — outcome? -1

Which outcome was entered for the compound C[C@]12CC[C@@H]3c4ccc(O)cc4CC[C@H]3[C@@H]1CC[C@@H]2O in this test? -1

I'd appreciate the recorded outcome for Cc1cc(N)c2cc(NC(=O)Nc3ccc4nc(C)cc(N)c4c3)ccc2n1 from this test. 1

What outcome does the record of this test show for Cc1ccc(O)c2ncccc12 ? -1

Test call for this compound, please: N[C@@H](Cc1cnc[nH]1)C(=O)O -1

Recorded test outcome, item O=C(CCCN1CCC(O)(c2ccc(Br)cc2)CC1)c1ccc(F)cc1 1

Lab log entry: CC1(C)CCC(NC(=O)[C@@H](N)CCC(=O)O)CC1 — outcome as called in the assay? -1

Called result for C[C@]12CCC(=O)C=C1CC[C@H]1[C@@H]3CC[C@](O)(C(=O)CO)[C@@]3(C)C[C@H](O)[C@@]12F -1

Recorded test call requested for OC(CCN1CCCCC1)(c1ccccc1)c1ccccc1 1

Which outcome was assigned to Cc1cc(=O)n(-c2ccccc2)n1C in this test? -1

Just curious, what result did COc1cc2c(cc1OC)C(C(C(=O)N(CCc1ccc(OC)c(OC)c1OC)CCc1ccc(OC)c(OC)c1OC)c1ccccc1)=NCC2 (centres undefined) get here? 1

----------
# System: CP237
# method-summary: qHTS profiling for inhibitors of Plasmodium falciparum proliferation (AID 504749); further: nearly all actives have a fitted effect of over 60% in size; further: potency means the concentration at half of the fitted maximal effect
# condition-notes: P. falciparum in erythrocytes, SYBR Green DNA, 72 h; series mostly up to 28.7 µM
Results filed as inconclusive are left out. Activity calls are given as the source filed them. The call rests on the fitted dose curve; in most records, active means well fitted inhibition curve with a large enough effect; inconclusive means small, poorly fitted or top-dose-only effect; inactive means flat fitted curve, though single readings scatter.
observed-property: Potency

> print(dat)
                    structure.smiles.string  target  observed.property       measurement
1  COc1c(C)c2c(c(O)c1C/C=C(\C)CCC(=O)O)C(=O)OC2   CP237            Potency  3.55 µM (active)
2  C[C@]12CCC(=O)C=C1CC[C@H]1[C@@H]3CC[C@](O)(C(=O)CO)[C@@]3(C)C[C@H](O)[C@@]12F   CP237            Potency          inactive
3                     CN1CCC[C@@H]1c1cccnc1   CP237            Potency          inactive

----------
# System: CP247
# method-summary: qHTS profiling for inhibitors of Plasmodium falciparum proliferation (AID 504749); further: nearly all actives have a fitted effect of over 60% in size
# condition-notes: P. falciparum in erythrocytes, SYBR Green DNA, 72 h; series mostly up to 28.7 µM
Records with an inconclusive call do not appear. Active and inactive are the calls of the source. The call rests on the fitted dose curve; in most records, active means well fitted inhibition curve with a large enough effect; inconclusive means small, poorly fitted or top-dose-only effect; inactive means flat fitted curve, though single readings scatter.
Allowed answers: active, inactive

Example entries begin here.
> print(dat)
                                   compound  target     group
1  CN1C2CCC1CC(OC(=O)c1c[nH]c3ccccc13)C2 (stereo not drawn)   CP247  inactive
2  COc1ccc(CCN2CCC(Nc3nc4ccccc4n3Cc3ccc(F)cc3)CC2)cc1   CP247    active
3     CCCCCCCCCCOCC(O)CN (stereo not drawn)   CP247  inactive
4               CCN(CCCc1ccccc1)CCCc1ccccc1   CP247  inactive
5                     Cc1cc(O)c(C(C)C)cc1Cl   CP247  inactive

What outcome does the record of this test show for CCCCCCCCCCCCCCCC[N+](C)(C)CC ? active

Query: recorded result category for N[C@H](Cc1c[nH]c2ccccc12)C(=O)O in this test inactive

Recorded test call requested for COc1c2occc2c(OC)c2c(=O)cc(C)oc12 inactive

----------
# System: CP194
# method-summary: qHTS profiling for inhibitors of Plasmodium falciparum proliferation (AID 504749); further: nearly all actives have a fitted effect of over 60% in size
# condition-notes: P. falciparum in erythrocytes, SYBR Green DNA, 72 h; series mostly up to 28.7 µM
Inconclusive results are not listed. Active and inactive are the calls of the source. Calls come from the whole dose curve; as a rule, active = well fitted inhibition curve with a large enough effect; inconclusive = small, poorly fitted or top-dose-only effect; inactive = flat fitted curve, though single readings scatter.
Permitted responses: true = active, false = inactive

Solved entries:
> print(dat)
                                   compound  group
1  CCOc1ccc(NC(=O)CC(C)O)cc1 (centres undefined)  false
2  COc1ccc(CN2CCN(C(c3ccc(F)cc3)c3ccc(F)cc3)CC2)c(OC)c1OC   true
3  COc1cccc(CCc2ccccc2OCC(CN(C)C)OC(=O)CCC(=O)O)c1 (centres undefined)   true

Then there is this compound:
# lookup: test call for CCCCCCCCCCCCCCCCCC(=O)OCC(O)CO (centres undefined) false
